# measurement notes: NCI Yeast Anticancer Drug Screen. Data for the cln2 rad14 strain (AID 165);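 further: 0% = growth equal to vehicle treated cultures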
# details: S. cerevisiae cln2 rad14 strain, at 50.0 µM, stronger effect = higher value
Compounds without any hit were thinned out: in the full panel of roughly 79,000, 15% have a hit. The source made the active and inactive calls. No stated cut-off is given here; in the data, active means growth inhibition above about 70%; inactive means the rest.
property name: growth inhibition

Examples from the recorded data:
Lab note: measured growth inhibition of "CCCC(=O)CC(=O)c1ccccc1" was -13.6% (inactive)

Value of measured growth inhibition for the entry "O=C(O)Cc1ccccn1" : 14.1% (inactive)

Continuing:
What the record says about Cc1cccnc1NC1OC(=O)c2ccccc21 (stereo not drawn) : growth inhibition is 2.05% (inactive)

###

# measurement notes: NCI Yeast Anticancer Drug Screen. Data for the bub3 strain (AID 167)
# details: S. cerevisiae bub3 mutant strain, at 50.0 µM
# Description: Growth inhibition of yeast strains with defined genetic alterations is measured as a screen for potential anti-cancer activity. Selected strains with alterations in DNA damage repair or cell cycle control were exposed to compounds and growth inhibition was measured relative to vehicle treated controls. The strain used in this assay is bub3
Compounds without any hit were thinned out: in the full panel of roughly 79,000, 15% have a hit. Active and inactive are the calls of the source. No stated cut-off is given here; in the data, active means growth inhibition above about 70%; inactive means the rest.
Returns: one label drawn from True = active, False = inactive

INPUT: I'd appreciate the recorded outcome for CC(=O)NC(CCc1ccc(Cl)c(Cl)c1)c1cccc(O)c(=O)c1 (stereo not given) from this test.
OUTPUT: True

INPUT: Short answer needed: outcome of this test for "Cc1ccc(NC(=O)c2ccccc2Cl)cc1" ?
OUTPUT: False

INPUT: Returns: the outcome recorded for "CN(C)c1ccc(/C=C/C(=O)c2ccc(NC(N)=O)cc2)cc1" in this assay.
OUTPUT: False

INPUT: Which result was noted for this molecule in the test: COC(CCCl)c1ccc(Cl)cc1 (stereo not given)
OUTPUT: False

Kindly consider the entry below.
INPUT: What is the recorded call for this molecule in the test? "Cn1c(=O)c2nc3c(=O)n(C)c(=O)n(C)c3nc2n(C)c1=O"
OUTPUT: False
